All values here come from patent US20160114035A1.

measurement target: DRB1*0401
experimental details: binding to purified HLA
endpoint name: IC50 (nM)

[[record]]
binder = "AAAHFVAANTLHAAA [H4.N9.H12]"
measured_number = 4.5

[[record]]
binder = "AAANFVAAYTLHAAA [N4.Y9.H12]"
measured_number = 1.8

[[record]]
binder = "AAAHFVAAFTLKAEA [H4.F9.E14]"
measured_number = 6.4

[[record]]
binder = "AAAEFVAAYTLHAAA [E4.Y9.H12]"
measured_number = 2.3

[[record]]
binder = "AAAEFVAAWTLHAAA [E4.H12]"
measured_number = 3.1

